- method description: Inhibition of rat intestinal alpha-glucosidase using p-nitrophenyl- alpha-D-glucopyranoside as substrate preincubated for 5 min before addition of substrate measured after 10 min
assay readout: IC50 (µM)
The response must be a number in µM with no trailing unit.

As a guide, the following entries are already answered.
compound: O=[N+]([O-])c1ccc(/N=C/c2ccccc2O)cc1
assay readout: IC50
measure unit: µM
number: 22.7
--
compound: COc1ccc(/N=C/c2cc(Br)ccc2O)cc1
assay readout: IC50
measure unit: µM
number: 74.1

Let's switch to this compound now.
I would be grateful if you could share the reported IC50 for O=Cc1cc(Br)ccc1O [US8614253,3-44] .
8.8

Entry source: BindingDB's records for doi:10.1007/s00044-010-9377-3
